# maps each entry to its melting point

Below: 2 compounds and their reported melting point.
COc1cc(-c2cn3ccsc3n2)ccc1OCc1ccc(C#N)cc1: 179 to 181 °C
COc1cc(-c2cn3cccc(OCc4ccccc4)c3n2)ccc1OCc1ccc(Cl)cc1: 164 to 166 °C

Ask | What value of melting point has been recorded for this entry: `COc1cc(-c2cn3cc(C(=O)O)ccc3n2)ccc1OCc1ccc(Cl)cc1`
Reply | 251 to 253 °C

Ask | Another: `COc1cc(-c2cn3ccccc3n2)ccc1OCc1ccc(Br)cc1`
Reply | 136 to 137 °C

Ask | Another: `COc1cc(-c2cn3cc(Br)c(C)c(C)c3n2)ccc1OCc1ccc(C#N)cc1`
Reply | 180 to 181 °C

Ask | Another: `COc1cc(-c2cn3cccc(OCc4ccccc4)c3n2)ccc1OCc1ccc(Br)cc1F`
Reply | 108 to 109 °C

Ask | Another: `COc1cc(-c2cn3ccc(C)cc3n2)ccc1OCc1ccccc1`
Reply | 171 to 173 °C

Ask | Another: `COc1cc(-c2cn3cc(C(F)(F)F)cc(Cl)c3n2)ccc1OCc1ccccc1`
Reply | 155 to 156 °C

Ask | Another: `COc1cc(-c2cn3ccccc3n2)ccc1O.Cl`
Reply | 276 to 278 °C

Ask | Another: `COc1cc(-c2cn3ccccc3n2)ccc1O[C@@H](C)c1ccccc1`
Reply | 149 to 150 °C

Ask | Another: `COc1cc(-c2cn3ccccc3n2)ccc1OCc1c(F)cccc1F`
Reply | 136 to 137 °C

Ask | Another: `c1ccc(-c2cc3cc(-c4cn5ccccc5n4)ccc3o2)cc1`
Reply | 239.5 to 241 °C

Ask | Another: `COc1cc(-c2cn3ccccc3n2)ccc1OCc1cc(F)ccc1C(F)(F)F`
Reply | 125 to 126 °C

Ask | Another: `COc1cc(-c2cn3cc(C(=O)O)ccc3n2)ccc1OCc1ccc(C#N)cc1`
Reply | 242 to 243 °C

Ask | Another: `COc1cc(-c2cn3ccccc3n2)ccc1Oc1ccc(Cl)cc1`
Reply | 148 to 149 °C

Ask | Another: `COc1cc(-c2cnc3ccccn23)ccc1OCc1ccc(C(F)(F)F)cc1`
Reply | 133 to 135 °C

Ask | Another: `COc1cc(-c2cn3ccccc3n2)ccc1OCc1ccc(Cl)cc1F`
Reply | 119 to 120 °C

Ask | Another: `COc1cc(-c2cn3cccc(C)c3n2)ccc1OCc1ccc(C#N)cc1`
Reply | 144 to 146 °C
